Every entry's value here was drawn from PubChem BioAssay (NCI).

test system: MDA-MB-435; test: NCI tumour cell line growth inhibition, 48 h
measurement_name: TGI (µM)

molecule: COc1ccc(-c2cn3ccnc3c(-c3ccc(Cl)cc3)n2)cc1
value_prefix: =
numeric_value: 8.62
--
molecule: C=CC(C)(C)/C(=C\CO[Si](C(C)C)(C(C)C)C(C)C)C(=O)N(C)c1ccccc1I
value_prefix: =
numeric_value: 73.9
--
molecule: C#CC(O)/C=C/C(O)CCCC(O)CC#CC(O)C#CCCCCC(O)/C=C/CCCC(=O)CCCCCCCCCCCCCCCC(O)C(O)C#CC(=O)O (stereo not given)
value_prefix: >
numeric_value: 25
--
molecule: O=C1C=C(NCCc2ccccc2)c2ccccc2C1=O
value_prefix: =
numeric_value: 2.34
--
molecule: CC(=O)OC1C2CCC3CC2C2(SCCS2)C31 (stereo not given)
value_prefix: >
numeric_value: 100
--
molecule: C[C@H](CCc1nc(C#N)c(N)o1)[C@H]1CC[C@H]2[C@@H]3CCC4C[C@@H](O)CC[C@]4(C)[C@H]3C[C@@H](O)[C@]12C (stereo not given in full)
value_prefix: =
numeric_value: 30
--
molecule: O=Cc1c2c(cc3c1CC1(C3)Cc3cc4c(c(C=O)c3C1)CCC4)CCC2
value_prefix: >
numeric_value: 100
--
molecule: Clc1cc(Cl)nc(Nc2ccc3c(c2)CCC3)n1
value_prefix: >
numeric_value: 100
--
molecule: Cc1cc(C)c(S(=O)(=O)N(CCCCCN)OCCCN)c(C)c1
value_prefix: =
numeric_value: 34.9
--
molecule: Cc1ccc(N=Nc2c(O)ccc3ccccc23)c(C)c1
value_prefix: >
numeric_value: 100

* * *

tested on: MDA-MB-231 breast; assay: NCI tumour cell line growth inhibition, 48 h; in the data active = GI50 below about 0.43 µM; inactive = the rest
Possible outcomes: active, inactive

compound: CCCCC[C@H]1C/C=C2/C(=O)C=C[C@@H]2C/C=C\CCCC(=O)O1
cat: active
--
compound: Fc1ccc(-c2ncn(C3CCNCC3)c2-c2ccnc(Oc3ccc(Cl)cc3)n2)cc1
cat: inactive
--
compound: COc1ccc(/C=C(\C#N)c2cc(OC)c(OC)c(OC)c2)cc1
cat: active
--
compound: COC(=O)N[C@@H](C)CNc1nccc(-c2cn(C(C)C)nc2-c2cc(Cl)cc(NS(C)(=O)=O)c2F)n1
cat: inactive
--
compound: CC(=O)c1nc(-c2ccc(C[C@@H](CNC(=O)CN(C)C)NC(=O)c3ccc(OC(C)C)c(Cl)c3)cc2)cn1C
cat: active
--
compound: CSCc1ncc(-c2ccc(C(F)(F)F)cc2)c(NC2CCCCCC2)n1
cat: inactive
--
compound: COc1ccc(CN2c3ccccc3Sc3ccccc32)cc1O
cat: inactive
--
compound: CCN(CC)c1ccc(/C=N/N=C(N)N)cc1
cat: inactive
--
compound: COC1CCC(OC)C(c2nc3sccn3c2/C=N/N=C(N)N)C1 (stereo not given)
cat: inactive
--
compound: CN1C2C=CC(=O)C1C(C#N)C2 (stereo not given)
cat: inactive

* * *

test system: NCI-H23 lung; assay: NCI tumour cell line growth inhibition, 48 h

compound: NCCOCCOCC(=O)O
TGI: > 100 µM

compound: Oc1c(NCn2nc(CCCCCCCCc3nn(CNc4ccc5ccccc5c4O)c(=S)o3)oc2=S)ccc2ccccc12
TGI: > 100 µM

compound: Cc1noc(-c2ccc(C(=O)O)[nH]2)c1Br
TGI: > 100 µM

compound: Cc1cc(C)c(-c2c(O)c(Br)c(-c3c(C)cc(C)c(Br)c3C)c(O)c2Br)c(C)c1Br
TGI: 11.8 µM

compound: CCN(CC)c1ccc(/C=N/N=C(N)N)cc1
TGI: 50.6 µM

compound: CCCCC[C@H]1C/C=C2/C(=O)C=C[C@@H]2C/C=C\CCCC(=O)O1
TGI: 0.713 µM

compound: COC(=O)CCCc1nc2ccccc2nc1N=Nc1ccccc1
TGI: > 100 µM

compound: CCOC(=O)c1c(SC(=O)c2ccc(Cl)cc2)n(-c2ccccc2)c(=S)n(-c2ccccc2)c1=O
TGI: > 100 µM

compound: O=C(O)C1CC2C=CCC(C2)C1 (configuration not stated)
TGI: > 100 µM

compound: Cc1cc(C)nc(NC(=O)COc2ccc(Cl)cc2)c1
TGI: > 100 µM

compound: NC(=S)c1cccc(C2Nc3ccccc3O2)c1 (configuration not stated)
TGI: > 100 µM

compound: COC(=O)CCC(NC(=S)N/N=C(\C)c1cccs1)C(=O)OC (configuration not stated)
TGI: > 100 µM

compound: C/C(CC(O)(C(F)(F)F)C(F)(F)F)=N\O
TGI: > 10 µM

compound: CC1(C)CC(=O)C2=C(C1)NC(=S)C(C#N)C2c1ccccc1 (configuration not stated)
TGI: > 100 µM

compound: CC(C)(C1=NC(C(C)(C)C)CO1)C1=N[C@@H](C(C)(C)C)CO1 (some centres not stated)
TGI: > 100 µM

compound: CCOC1=C/C(=N\Nc2ccc([N+](=O)[O-])cc2)CCC1
TGI: 94.1 µM

compound: Cc1ccc(N=Nc2c(O)ccc3ccccc23)c(C)c1
TGI: > 100 µM

compound: CC12CC(c3ccccc3O1)C(C(=O)Nc1nccs1)C(=O)N2 (configuration not stated)
TGI: > 100 µM

compound: CC(=O)/C(=N\N=C(N)N)c1ccccc1
TGI: > 100 µM

compound: C/C(=C\c1ccccc1)C(=O)c1c(C)cc(C)cc1C
TGI: > 100 µM

compound: COC(=O)C1=C(O)c2cc(OC)c(OC)c(OC)c2C(c2ccc3c(c2)OCO3)[C@@H]1C(=O)OC (some centres not stated)
TGI: > 100 µM

compound: C/C(N=NS(=O)(=O)c1c(C)cc(C)cc1C)=C1\C=CC=CN1O
TGI: > 100 µM

compound: CC(=O)c1nc(-c2ccc(C[C@@H](CNC(=O)CN(C)C)NC(=O)c3ccc(OC(C)C)c(Cl)c3)cc2)cn1C
TGI: 21.1 µM

compound: CCCCn1c(-c2ccccc2)cs/c1=N\NC(=O)Cn1c(C)nc2ccccc21
TGI: > 100 µM

compound: Cc1ccc(N2Cc3c(ccc4ccccc34)OP2(=S)N2CCCC2)cc1 (configuration not stated)
TGI: > 100 µM

compound: CCNc1ccc2c(c1)C(=O)N(OS(C)(=O)=O)C2=O
TGI: > 100 µM

compound: OC(Cc1cccc2ccccc12)CN1CCC(c2ccccc2)CC1 (configuration not stated)
TGI: 30.8 µM

compound: CC(=O)N1CCOC12N=NC(C)(C)O2 (configuration not stated)
TGI: > 100 µM

compound: COc1c(NC(C)=O)c2ccccc2c2ccccc12
TGI: > 100 µM

compound: C[C@@H]1C[C@@H]2OC(=O)[C@]3(C)[C@H]2[C@@H](OC3(C)O)[C@]2(C)C(=O)C=C[C@@H]12 (some centres not stated)
TGI: 70 µM

compound: CCOC(=O)/C=C(/C(=O)OCC)n1cc(C)c(=O)n(Cc2cn(CCCCOC(C)=O)nn2)c1=O
TGI: 31.9 µM

compound: Cc1cc(C)c(S(=O)(=O)N(CCCCCN)OCCCN)c(C)c1
TGI: 33.4 µM

compound: Cn1cnnc1Sc1c([N+](=O)[O-])nc(-c2ccc([N+](=O)[O-])cc2)n1C
TGI: 32.4 µM

compound: NCCCNCCSP(=O)(O)O
TGI: > 750 µM

compound: COC(=O)c1c(CC(=O)OC(C)C)cc2n(c1=O)Cc1c-2nc2ccccc2c1OC
TGI: > 100 µM

compound: BrCc1ccc2ccc3ccc(CBr)nc3c2n1
TGI: 19.4 µM

compound: COc1ccc(C2C3=C(COC3=O)Oc3cc4c(cc32)OCO4)cc1OC (configuration not stated)
TGI: > 100 µM
